This listing pairs molecules with measured inhibition at 10 µM.
target: UniProtKB Q06187; test: biochemical; settings: read-out: BTK inhibition (%), 0.75 uM BTK, […] probe 3l, 15 min preincubation
Sequence (Q06187 402-655 limits assumed): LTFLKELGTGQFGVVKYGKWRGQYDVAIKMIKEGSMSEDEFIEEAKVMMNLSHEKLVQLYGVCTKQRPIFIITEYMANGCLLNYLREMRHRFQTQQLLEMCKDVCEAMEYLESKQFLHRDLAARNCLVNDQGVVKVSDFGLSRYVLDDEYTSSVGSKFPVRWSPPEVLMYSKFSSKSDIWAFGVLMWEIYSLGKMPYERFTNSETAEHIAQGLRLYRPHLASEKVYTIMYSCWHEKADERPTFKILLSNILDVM

query: GET inhibition at 10 µM where system = UniProtKB Q06187 and item = CCCCCCCC(=O)CCc1ccc(O)c(OC)c1 [PCM-0216195]
result: -8.3%

query: # return inhibition at 10 µM for c1ccc([C@H]2CN3CCSC3=N2)cc1 [PCM-0065508] , test system: UniProtKB Q06187
result: 17.9%

query: Please indicate recorded inhibition at 10 µM of Cc1[nH]c(=O)c(C#N)cc1-c1ccncc1 [PCM-0065386] measured with UniProtKB Q06187.
result: -9.3%

query: Report its inhibition at 10 µM with UniProtKB Q06187 as the test system: O=C(Nc1cnn2ccc(N3CCC[C@@H]3c3cc(F)ccc3F)nc12)N1CC[C@H](O)C1 [PCM-0215701]
result: -9%

query: Jot down inhibition at 10 µM (UniProtKB Q06187) of CCN1CCN(C(=O)N[C@@H](C(=O)N[C@@H]2C(=O)N3C(C(=O)O)=C(CSc4nnnn4C)CS[C@H]23)c2ccc(O)cc2)C(=O)C1=O [PCM-0085943] .
result: -12.5%

query: # lookup: UniProtKB Q06187 inhibition at 10 µM, key = O=C(O)/C=C/CCCCCCCO [PCM-0214957]
result: 3.4%

query: Report value: inhibition at 10 µM, system: UniProtKB Q06187, molecule: C[C@H]1[C@H](NC(=O)/C(=N\OC(C)(C)C(=O)O)c2csc(N)n2)C(=O)N1S(=O)(=O)O [PCM-0085816]
result: -15.6%

query: Lab note: UniProtKB Q06187 assay, enter inhibition at 10 µM for CO/N=C(\C(=O)N[C@@H]1C(=O)N2C(C(=O)O)=C(C[N+]3(C)CCCC3)CS[C@H]12)c1csc(N)n1 [PCM-0214905] here
result: -10.1%

query: Give inhibition at 10 µM for this entry on UniProtKB Q06187: CCN(C(=O)c1c(O)c2c(Cl)cccc2n(C)c1=O)c1ccccc1 [PCM-0095368]
result: 11%

query: Report inhibition at 10 µM from UniProtKB Q06187 testing of Cc1cc([C@@H](C)Nc2ccccc2C(=O)O)c2nc(N3CCOCC3)cc(=O)n2c1 [PCM-0214725]
result: -6.9%

query: Send back UniProtKB Q06187 inhibition at 10 µM of C[C@@H]1O[C@@H](O[C@H]2[C@H](O[C@H]3CC[C@@]4(C)[C@@H](CC[C@]5(C)[C@@H]4CC=C4[C@@H]6CC(C)(C)CC[C@]6(C(=O)O)CC[C@]45C)[C@]3(C)CO)OC[C@H](O[C@@H]3O[C@H](CO)[C@@H](O)[C@H](O)[C@H]3O)[C@@H]2O)[C@H](O)[C@H](O)[C@H]1O [PCM-0216539] only.
result: 52.5%
